Listing of recorded self-cleavage by entry.
B1: HDV Ribozyme (parent)
chain: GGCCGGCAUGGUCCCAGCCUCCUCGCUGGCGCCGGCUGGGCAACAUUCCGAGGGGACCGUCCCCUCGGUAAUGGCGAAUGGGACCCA

# Variants of: B1
# ASSAY_TEXT: self-cleavage, relative activity (ratio to wild type); higher = more cleavage; co-transcriptional
Respond with the number and no other words.

Examples with their reported self-cleavage follow.
# MUTATION_STRING, self-cleavage
rows = [
    ("G2A G38C", 0.07),
    ("C19A C36A", 0.119),
]

(Q) For the variant shown here, G34U C61G , give the reported self-cleavage.
(A) 0.378

(Q) For the variant shown here, G29A A78G , give the reported self-cleavage.
(A) 0.0804

(Q) For the variant shown here, G25A G54A , give the reported self-cleavage.
(A) 0.242
